target: 11β-HSD1 (Homo sapiens); assay: Inhibition of a microsomal preparation of 11β-HSD1, scintillation proximity assay; format: biochemical; design: expressed in transfected cells; host or cells: CHO cells (microsomes); conditions: at 100 nM; microsomes from CHO cells overexpressing human 11β-HSD1
ATTRIBUTE MEASURED: inhibition at 0.1 µM (%)

COMPOUND	inhibition at 0.1 µM / %
CC(=O)NC(C)(C)C#Cc1ccc([C@H](C)N2CC[C@](CC(C)(C)O)(c3ccccc3)OC2=O)cc1 [Example 17]	84.9
C[C@@H](c1ccc(C#CC(C)(C)C(=O)N(C)C)cc1)N1CC[C@](CC(C)(C)O)(c2ccccc2)OC1=O [Example 5]	97
C=C(C)C[C@]1(c2ccccc2)CCN([C@@H](C)c2ccc(C#CC(C)(C)NS(C)(=O)=O)cc2)C(=O)O1 [Example 22]	93.6
C[C@@H](c1ccc(C#CC(C)(C)NC(=O)N(C)C)cc1)N1CC[C@](CC(C)(C)O)(c2ccccc2)OC1=O [Example 23]	86

###

target: 11β-HSD1 (Homo sapiens, UniProt P28845); test: Inhibition of a microsomal preparation of 11β-HSD1, scintillation proximity assay; format: biochemical; set-up: expressed in transfected cells; host or cells: CHO cells (microsomes); details: microsomes from CHO cells overexpressing human 11β-HSD1
Sequence (P28845 whole entry): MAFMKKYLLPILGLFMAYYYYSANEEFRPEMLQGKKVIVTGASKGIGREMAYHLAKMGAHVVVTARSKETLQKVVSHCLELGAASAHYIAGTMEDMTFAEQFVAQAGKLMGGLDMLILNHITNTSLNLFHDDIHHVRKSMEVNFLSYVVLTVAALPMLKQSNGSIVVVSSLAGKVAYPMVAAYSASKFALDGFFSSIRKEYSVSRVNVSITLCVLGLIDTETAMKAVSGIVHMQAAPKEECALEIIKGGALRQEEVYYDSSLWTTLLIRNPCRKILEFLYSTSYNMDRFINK
pIC50: −log10 of the molar value.
ATTRIBUTE MEASURED: pIC50

SUBSTANCE SMILES	ATTRIBUTE MEASURED	VALUE
C[C@@H](c1ccc(C#CC(C)(C)N)cc1)N1CC[C@](CC(C)(C)O)(c2ccccc2)OC1=O	pIC50	7.27
COC(=O)NC1(C#Cc2ccc([C@H](C)N3CC[C@](CC(C)(C)O)(c4ccccc4)OC3=O)cc2)CCCCC1	pIC50	8.62
C[C@@H](c1ccc(C#CC(C)(C)C(=O)N(C)C)cc1)N1CC[C@](CC(C)(C)O)(c2ccccc2)OC1=O	pIC50	8.96
C[C@@H](c1ccc(C#CC2(O)CCCC2)cc1)N1CC[C@](CC(C)(C)O)(c2ccccc2)OC1=O	pIC50	8.72
C=C(C)C[C@]1(c2ccccc2)CCN([C@@H](C)c2ccc(C#CC(C)(C)NS(C)(=O)=O)cc2)C(=O)O1	pIC50	8.74

I = C[C@@H](c1ccc(C#CC(C)(C)NC(=O)N(C)C)cc1)N1CC[C@](CC(C)(C)O)(c2ccccc2)OC1=O
II = C[C@@H](c1ccc(C#CC(C)(C)N2CCOC2=O)cc1)N1CC[C@](CC(C)(C)O)(c2ccccc2)OC1=O
III = COC(=O)N1CC(O)(C#Cc2ccc([C@H](C)N3CC[C@](CC(C)(C)O)(c4ccccc4)OC3=O)cc2)C1
IV = C[C@@H](c1ccc(C#CC(C)(C)C(=O)NC2CC2)cc1)N1CC[C@](CC(C)(C)O)(c2ccccc2)OC1=O
Let's sort these by pIC50, smallest first. Go ahead? Record the ranking as a list of labels in the requested order.
I, IV, III, II
(I: 7.91, IV: 8.28, III: 8.55, II: 8.96)

a = C[C@@H](c1ccc(C#CC2(N)CCCCC2)cc1)N1CC[C@](CC(C)(C)O)(c2ccccc2)OC1=O
b = COC(=O)OC1(C#Cc2ccc([C@H](C)N3CC[C@](CC(C)(C)O)(c4ccccc4)OC3=O)cc2)CN(C(=O)OC)C1
c = C[C@@H](c1ccc(C#CC2(O)CCN(C)CC2)cc1)N1CC[C@](CC(C)(C)O)(c2ccccc2)OC1=O
Would you mind ranking these compounds by ascending pIC50? # list labels per requested ordering
c, a, b
(c: 7.06, a: 7.91, b: 8.62)

A = CC(=O)NC(C)(C)C#Cc1ccc([C@H](C)N2CC[C@](CC(C)(C)O)(c3ccccc3)OC2=O)cc1
B = CC(=O)N1CC(O)(C#Cc2ccc([C@H](C)N3CC[C@](CC(C)(C)O)(c4ccccc4)OC3=O)cc2)C1
Kindly compare A with B and tell me which has the lower pIC50 figure. Please indicate the selected item by its label.
A
